The reported measurements were obtained from paper PMC13253105.

# targetOfAssay: LlCap5 (Lactococcus cremoris)
# Sequence (A0A1E7G0A2 1-385): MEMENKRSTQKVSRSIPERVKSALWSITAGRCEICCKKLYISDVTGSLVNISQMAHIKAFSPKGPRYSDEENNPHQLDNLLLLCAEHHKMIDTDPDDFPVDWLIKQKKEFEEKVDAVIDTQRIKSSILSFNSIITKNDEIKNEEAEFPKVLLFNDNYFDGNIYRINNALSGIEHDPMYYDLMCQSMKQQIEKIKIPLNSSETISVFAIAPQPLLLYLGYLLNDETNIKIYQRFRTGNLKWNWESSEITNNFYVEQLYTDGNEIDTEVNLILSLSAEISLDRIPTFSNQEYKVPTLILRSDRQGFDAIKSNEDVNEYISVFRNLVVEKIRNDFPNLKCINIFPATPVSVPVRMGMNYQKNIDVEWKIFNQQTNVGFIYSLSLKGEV
Where a SMILES comes first, the peptide text is derived from it. The star is where a group is joined. Cbz = O=C(OCc1ccccc1)*; Bn = c1ccc(C*)cc1
Recorded IC50 by entry
# number only, unit µM dropped from output

Some molecules with recorded IC50:
NC(=O)[C@H](Cc1ccc(O)cc1)NC(=O)[C@H](CCCCNC(=O)OCc1ccccc1)NC(=O)OCc1ccccc1 | 260
Cc1ccc(CNC(=O)c2ccc(Cn3c(=O)c4ccccc4n(CC(=O)NCc4ccco4)c3=O)cc2)cc1 | 120
NS(=O)(=O)c1ccc(CCNC(=O)CCCn2c(SCc3cc(=O)n4cc(Br)ccc4n3)nc3ccsc3c2=O)cc1 | 230
COC(=O)C(NC(=O)C(Cc1ccc(OCc2ccccc2)cc1)NC(=O)C(Cc1ccccc1)NC(=O)CNC(=O)OCc1ccccc1)C(C)O (stereo not drawn) [Compound 22] (Cbz-GFY(Bn)T-OMe; configuration not given here) | 58

Task item: Fill in: IC50 on LlCap5 (Lactococcus cremoris), entry `Cn1c(=O)[nH]c(=O)c2c1nc(SCCSc1nc3c(c(=O)[nH]c(=O)n3C)n1CCc1ccccc1)n2CCc1ccccc1`
Reply: 140
